Origin of measurements: patent US20080269343A1

- TEST: Steady-state pharmacokinetics of aliskiren 300 mg alone, hydrochlorothiazide interaction study, Day 15 (Example 7)
- Format: in vivo, human
- COND: both sexes, human, in vivo, oral, 300 mg, Geometric Mean, 300 mg daily, Day 15, healthy volunteers N 22
- Procedure: The study employed was an open-label, two-period, multiple dose design to evaluate the pharmacokinetic drug-drug interaction between hydrochlorothiazide (HCTZ) and aliskiren when given alone or in combination to healthy volunteers. After screening, a total of 22 healthy male and female volunteers were enrolled into the study. The subjects were admitted to the study center at least 12 hours prior to the initial dosing of HCTZ for baseline evaluation. […]
MEASURED QUANTITY: Cmax

Query: Answer with the recorded Cmax for the compound listed here: COCCCOc1cc(C[C@@H](C[C@H](N)[C@@H](O)C[C@H](C(=O)NCC(C)(C)C(N)=O)C(C)C)C(C)C)ccc1OC
Response: 354 ng/mL

----------
- TEST: Single-dose four-period crossover pharmacokinetic study of 75, 150, 300 and 600 mg aliskiren (dosage form 3) in healthy volunteers (Example 3)
- Type: in vivo
- COND: human, plasma; arithmetic mean (SD); single oral dose 150 mg, healthy subjects, n = 29
- Procedure: An open-label, single-dose, four-period, four-treatment, randomized crossover study with a 7-day washout between each period to compare the plasma concentrations of 75, 150, 300 and 600 mg of aliskiren (dosage form 3) in healthy volunteers was carried out. A total of 32 healthy subjects enrolled and 30 completed all study procedures and treatments. […]
MEASURED QUANTITY: AUC(0-inf) (ng·h/mL)
Answers are plain numbers, in ng·h/mL.

Query: Answer with the recorded AUC(0-inf) for the compound listed here: COCCCOc1cc(C[C@@H](C[C@H](N)[C@@H](O)C[C@H](C(=O)NCC(C)(C)C(N)=O)C(C)C)C(C)C)ccc1OC [aliskiren]
Response: 627

----------
- TEST: Single-dose four-period crossover pharmacokinetic study of 75, 150, 300 and 600 mg aliskiren (dosage form 3) in healthy volunteers (Example 3)
- Type: in vivo
- COND: human, plasma; median; single oral dose 600 mg, dosage form 3, healthy subjects n = 30, fasted
- Method: An open-label, single-dose, four-period, four-treatment, randomized crossover study with a 7-day washout between each period to compare the plasma concentrations of 75, 150, 300 and 600 mg of aliskiren (dosage form 3) in healthy volunteers was carried out. A total of 32 healthy subjects enrolled and 30 completed all study procedures and treatments. […]
MEASURED QUANTITY: Tmax (h)
One number for each entry, in h.

Query: Answer with the recorded Tmax for the compound listed here: COCCCOc1cc(C[C@@H](C[C@H](N)[C@@H](O)C[C@H](C(=O)NCC(C)(C)C(N)=O)C(C)C)C(C)C)ccc1OC
Response: 2

----------
- TEST: Single and multiple dose 300 mg pharmacokinetic study in Japanese and Caucasian healthy male subjects (Example 5)
- Assay type: in vivo, human
- COND: male, human, plasma, oral, 300 mg, arithmetic mean (SD); steady state, 300 mg once a day, Japanese subjects; read-out: AUC0-τ
MEASURED QUANTITY: AUC (ng·h/mL)
Numbers only, in ng·h/mL.

Query: Answer with the recorded AUC for the compound listed here: COCCCOc1cc(C[C@@H](C[C@H](N)[C@@H](O)C[C@H](C(=O)NCC(C)(C)C(N)=O)C(C)C)C(C)C)ccc1OC
Response: 2520

----------
- TEST: Single-dose 300 mg pharmacokinetic study in healthy and type 2 diabetic subjects (Example 4)
- Assay type: in vivo, human
- COND: human, plasma, po, 300 mg, Geometric Mean; single oral dose 300 mg, type 2 diabetic patients n = 30; read-out: Cmax
MEASURED QUANTITY: Cmax (ng/mL)
Numbers only, in ng/mL.

Query: Answer with the recorded Cmax for the compound listed here: COCCCOc1cc(C[C@@H](C[C@H](N)[C@@H](O)C[C@H](C(=O)NCC(C)(C)C(N)=O)C(C)C)C(C)C)ccc1OC [aliskiren]
Response: 322

----------
- TEST: Single and multiple dose 300 mg pharmacokinetic study in Japanese and Caucasian healthy male subjects (Example 5)
- Format: in vivo, human
- COND: male, human, plasma, oral, 300 mg, arithmetic mean (SD); steady state, 300 mg once a day, Japanese subjects; read-out: Cmax^SS
MEASURED QUANTITY: Cmax (ng/mL)
One number for each entry, in ng/mL.

Query: Answer with the recorded Cmax for the compound listed here: COCCCOc1cc(C[C@@H](C[C@H](N)[C@@H](O)C[C@H](C(=O)NCC(C)(C)C(N)=O)C(C)C)C(C)C)ccc1OC
Response: 403

----------
- TEST: Single-dose 300 mg pharmacokinetic study in healthy and type 2 diabetic subjects (Example 4)
- Type: in vivo, human
- COND: human, plasma, po, 300 mg, Geometric Mean; single oral dose 300 mg, healthy subjects n = 30
MEASURED QUANTITY: AUC(0-inf) (ng·h/mL)
Give bare numbers, in ng·h/mL.

Query: Answer with the recorded AUC(0-inf) for the compound listed here: COCCCOc1cc(C[C@@H](C[C@H](N)[C@@H](O)C[C@H](C(=O)NCC(C)(C)C(N)=O)C(C)C)C(C)C)ccc1OC
Response: 1500

----------
- TEST: Single-dose four-period crossover pharmacokinetic study of 75, 150, 300 and 600 mg aliskiren (dosage form 3) in healthy volunteers (Example 3)
- Type: in vivo
- COND: human, plasma; arithmetic mean (SD); single oral dose 300 mg, healthy subjects n = 30
MEASURED QUANTITY: Cmax (ng/mL)
One number for each entry, in ng/mL.

Query: Answer with the recorded Cmax for the molecule listed here: COCCCOc1cc(C[C@@H](C[C@H](N)[C@@H](O)C[C@H](C(=O)NCC(C)(C)C(N)=O)C(C)C)C(C)C)ccc1OC [aliskiren]
Response: 202

----------
- TEST: Steady-state pharmacokinetics of aliskiren 300 mg alone, furosemide interaction study, Day 13 (Example 6)
- Assay type: in vivo, human
- COND: both sexes, human, in vivo, oral, 300 mg, Median, 300 mg daily, Day 13, healthy volunteers N 21
MEASURED QUANTITY: Cmax (ng/mL)
Numbers only, in ng/mL.

Query: Answer with the recorded Cmax for the compound listed here: COCCCOc1cc(C[C@@H](C[C@H](N)[C@@H](O)C[C@H](C(=O)NCC(C)(C)C(N)=O)C(C)C)C(C)C)ccc1OC
Response: 284

----------
- TEST: Single and multiple dose 300 mg pharmacokinetic study in Japanese and Caucasian healthy male subjects (Example 5)
- Assay type: in vivo, human
- COND: male, human, plasma, oral, 300 mg, Median (minimum-maximum); steady state, 300 mg once a day, Caucasian subjects; read-out: Tmax^SS
MEASURED QUANTITY: Tmax (h)
Give bare numbers, in h.

Query: Answer with the recorded Tmax for the molecule listed here: COCCCOc1cc(C[C@@H](C[C@H](N)[C@@H](O)C[C@H](C(=O)NCC(C)(C)C(N)=O)C(C)C)C(C)C)ccc1OC
Response: 2

----------
- TEST: Single-dose four-period crossover pharmacokinetic study of 75, 150, 300 and 600 mg aliskiren (dosage form 3) in healthy volunteers (Example 3)
- Type: in vivo
- COND: human, plasma; arithmetic mean (SD); single oral dose 300 mg, healthy subjects n = 30; read-out: AUC0-96
- Method: An open-label, single-dose, four-period, four-treatment, randomized crossover study with a 7-day washout between each period to compare the plasma concentrations of 75, 150, 300 and 600 mg of aliskiren (dosage form 3) in healthy volunteers was carried out. A total of 32 healthy subjects enrolled and 30 completed all study procedures and treatments. […]
MEASURED QUANTITY: AUC(0-t)
Write the numeric value and follow it with the unit.

Query: Answer with the recorded AUC(0-t) for the compound listed here: COCCCOc1cc(C[C@@H](C[C@H](N)[C@@H](O)C[C@H](C(=O)NCC(C)(C)C(N)=O)C(C)C)C(C)C)ccc1OC
Response: 1480 ng·h/mL

----------
- TEST: Steady-state pharmacokinetics of aliskiren 300 mg alone, hydrochlorothiazide interaction study, Day 15 (Example 7)
- Format: in vivo, human
- COND: both sexes, human, in vivo, oral, 300 mg, arithmetic mean, 300 mg daily, Day 15, healthy volunteers N 22
MEASURED QUANTITY: Tmax (h)
Numbers only, in h.

Query: Answer with the recorded Tmax for the compound listed here: COCCCOc1cc(C[C@@H](C[C@H](N)[C@@H](O)C[C@H](C(=O)NCC(C)(C)C(N)=O)C(C)C)C(C)C)ccc1OC
Response: 2.23

----------
- TEST: Single-dose 300 mg pharmacokinetic study in healthy and type 2 diabetic subjects (Example 4)
- Format: in vivo, human
- COND: human, plasma, po, 300 mg, arithmetic mean; single oral dose 300 mg, type 2 diabetic patients n = 30; read-out: tmax
MEASURED QUANTITY: Tmax
Write the numeric value and follow it with the unit.

Query: Answer with the recorded Tmax for the compound listed here: COCCCOc1cc(C[C@@H](C[C@H](N)[C@@H](O)C[C@H](C(=O)NCC(C)(C)C(N)=O)C(C)C)C(C)C)ccc1OC
Response: 1.62 h
